target: insulin (Homo sapiens, UniProt P01308); construct: purchased Roche 1376497; assay: Kinetic analysis using surface plasmon resonance (Biacore T200), immobilized insulin; format: binding; conditions: Table 7; MGSSHHHHHHGSS-[Y#####]-A
Sequence (P01308 25-54 limits assumed): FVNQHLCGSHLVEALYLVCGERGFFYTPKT
Sequence (P01308 90-110 limits assumed): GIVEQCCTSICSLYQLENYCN
Can you tell me ka for the items I'm about to list?
One number for each entry, in M⁻¹ s⁻¹.

substance: Y00299: insulin binding Y variant from Ylib002Naive.I, SEQ ID NO:132 (LAEAKEAAIAELDSKGVGAYQIKFIQVAKTVEQVQILKQAILADLPA; Engineered insulin binding Y variant)
quantity.unit: M⁻¹ s⁻¹
ka: 310000

What ka value was documented for this substance, Y00304: insulin binding Y variant from Ylib002Naive.I, SEQ ID NO:134 (LAEAKEAAIAELDSKGVGAYQIKFIQVAHDVEEVQILKQAILADLPA; Engineered insulin binding Y variant) ?
85000

====

biological target: insulin (Homo sapiens); construct: purchased Roche 1376497; test: Kinetic analysis using surface plasmon resonance (Biacore T200), immobilized insulin; format: binding; settings: Table 9, mutation study 5; MGSSHHHHHHGSS-[Y#####]-A
pKd: −log10 of the molar value.
Label Not satisfied if pKd falls below 7; label Satisfied in every other case.

substance: Y02715: insulin binding Y variant, Y00358 with K15Y Q26E, SEQ ID NO:155 (LAEAKEAAIAELDSYGVGAAKIKWIEDAKSVETVQFLKQAILAELPA; Engineered insulin binding Y variant)
target: insulin (Homo sapiens)
answer.label: Not satisfied
--
substance: Y02709: insulin binding Y variant, Y00358 with I9L, SEQ ID NO:149 (LAEAKEAALAELDSKGVGAAKIKWIQDAKSVETVQFLKQAILAELPA; Engineered insulin binding Y variant)
target: insulin (Homo sapiens)
answer.label: Not satisfied
--
substance: Y02711: insulin binding Y variant, Y00358 with Q26E, SEQ ID NO:151 (LAEAKEAAIAELDSKGVGAAKIKWIEDAKSVETVQFLKQAILAELPA; Engineered insulin binding Y variant)
target: insulin (Homo sapiens)
answer.label: Satisfied

Threshold query (pKd >= 7) on Y02717: insulin binding Y variant, Y00310 with K15Y Q26E, SEQ ID NO:157 (LAEAKEAAIAELDSYGVGAYQIKFIEIAHTVEEVQLMKQAILADLPA; Engineered insulin binding Y variant)
Not satisfied

Does pKd meet or surpass 7 for Y02716: insulin binding Y variant, Y00301 with K15Y Q26E, SEQ ID NO:156 (LAEAKEAAIAELDSYGVGARQIKWIEQAKSVEVVQWLKQAILADLPA; Engineered insulin binding Y variant) ?
Satisfied

Is reported pKd greater than or equal to 7 here: Y02710: insulin binding Y variant, Y00358 with K15Y, SEQ ID NO:150 (LAEAKEAAIAELDSYGVGAAKIKWIQDAKSVETVQFLKQAILAELPA; Engineered insulin binding Y variant)
Satisfied

Kindly determine if pKd recorded for Y02713: insulin binding Y variant, Y00310 with K15Y, SEQ ID NO:153 (LAEAKEAAIAELDSYGVGAYQIKFIQIAHTVEEVQLMKQAILADLPA; Engineered insulin binding Y variant) is above or exactly 7.
Not satisfied

Determine whether this substance has pKd no lower than 7: Y02714: insulin binding Y variant, Y00310 with Q26E, SEQ ID NO:154 (LAEAKEAAIAELDSKGVGAYQIKFIEIAHTVEEVQLMKQAILADLPA; Engineered insulin binding Y variant)
Not satisfied

====

molecular target: insulin (Homo sapiens, UniProt P01308); construct: purchased Roche 1376497; experiment: Kinetic analysis using surface plasmon resonance (Biacore T200), immobilized insulin; format: binding; conditions: Table 9, mutation study 5; MGSSHHHHHHGSS-[Y#####]-A
assay.readout: ka
// unit must come after the numeric part

substance: Y02709: insulin binding Y variant, Y00358 with I9L, SEQ ID NO:149 (LAEAKEAALAELDSKGVGAAKIKWIQDAKSVETVQFLKQAILAELPA; Engineered insulin binding Y variant)
target: insulin (Homo sapiens, UniProt P01308)
result: 27000 M⁻¹ s⁻¹

# return ka for each item in the list
1. Y02716: insulin binding Y variant, Y00301 with K15Y Q26E, SEQ ID NO:156 (LAEAKEAAIAELDSYGVGARQIKWIEQAKSVEVVQWLKQAILADLPA; Engineered insulin binding Y variant)
2. Y02711: insulin binding Y variant, Y00358 with Q26E, SEQ ID NO:151 (LAEAKEAAIAELDSKGVGAAKIKWIEDAKSVETVQFLKQAILAELPA; Engineered insulin binding Y variant)
3. Y02717: insulin binding Y variant, Y00310 with K15Y Q26E, SEQ ID NO:157 (LAEAKEAAIAELDSYGVGAYQIKFIEIAHTVEEVQLMKQAILADLPA; Engineered insulin binding Y variant)

1: 2.7e+07 M⁻¹ s⁻¹; 2: 1500 M⁻¹ s⁻¹; 3: 33000 M⁻¹ s⁻¹

====

biological target: insulin (Homo sapiens); construct: purchased Roche 1376497; test: Kinetic analysis using surface plasmon resonance (Biacore T200), immobilized insulin; format: binding; details: Table 7; MGSSHHHHHHGSS-[Y#####]-A
Criterion: Kd strictly under 60 nM. Met: MET. Not met: NOT MET.

Sample answers from the record:
substance: Y00310: insulin binding Y variant from Ylib002Naive.I, SEQ ID NO:135 (LAEAKEAAIAELDSKGVGAYQIKFIQIAHTVEEVQLMKQAILADLPA; Engineered insulin binding Y variant)
answer.label: MET
//
substance: Y00299: insulin binding Y variant from Ylib002Naive.I, SEQ ID NO:132 (LAEAKEAAIAELDSKGVGAYQIKFIQVAKTVEQVQILKQAILADLPA; Engineered insulin binding Y variant)
answer.label: MET
//
substance: Y00361: insulin binding Y variant from Ylib002Naive.I, SEQ ID NO:144 (LAEAKEAAIAELDSKGVGAKFIKMIQSAKLVETVQLLKQAILADLPA; Engineered insulin binding Y variant)
answer.label: NOT MET
//
substance: Y00330: insulin binding Y variant from Ylib002Naive.I, SEQ ID NO:136 (LAEAKEAAIAELDSKGVGAKYIKMIQMAKHVETVQYMKQAILASLPA; Engineered insulin binding Y variant)
answer.label: NOT MET

Continue with the next substance.
Quick check: Kd of Y00356a: insulin binding Y variant from Ylib002Naive.I, SEQ ID NO:141 (LAEAKEAAIAELDSKGVGAKYIKMIQHAHYVEVVQWLKQAILAHLPA; Engineered insulin binding Y variant) under 60 nM?
MET

====

target: IL-6 (Homo sapiens); construct: purchased R&D Systems 206-IL-200/CF; experiment: Kinetic analysis using surface plasmon resonance (Biacore T200), immobilized IL-6; assay type: binding; settings: Table 9, mutation study 5; MGSSHHHHHHGSS-[Y#####]-A
Sequence (P05231 30-212): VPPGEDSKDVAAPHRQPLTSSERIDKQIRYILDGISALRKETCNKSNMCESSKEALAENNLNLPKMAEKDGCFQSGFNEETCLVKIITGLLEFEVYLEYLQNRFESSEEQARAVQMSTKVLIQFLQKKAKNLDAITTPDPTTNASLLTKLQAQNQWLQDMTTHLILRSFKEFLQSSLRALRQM
Consider the following substances; for each one, report its ka.
Numbers only, in M⁻¹ s⁻¹.

Below, 6 substances whose answers are already recorded.
substance: Y02699: IL-6 binding Y variant, Y02444 with Q26E, SEQ ID NO:83 (LAEAKEAAIAELDSKGVGAVEIKQIEEALLVEIVQLLKQAILAVLPA; Engineered IL-6 binding Y variant)
quantitative.readout: 19000
--
substance: Y02703: IL-6 binding Y variant, Y02444 with K15Y Q26E, SEQ ID NO:87 (LAEAKEAAIAELDSYGVGAVEIKQIEEALLVEIVQLLKQAILAVLPA; Engineered IL-6 binding Y variant)
quantitative.readout: 21000
--
substance: Y02702: IL-6 binding Y variant, Y02415 with Q26E, SEQ ID NO:86 (LAEAKEAAIAELDSKGVGAGDIKDIEDALLVEIVQLLKQAILAVLPA; Engineered IL-6 binding Y variant)
quantitative.readout: 16000
--
substance: Y02701: IL-6 binding Y variant, Y02415 with K15Y, SEQ ID NO:85 (LAEAKEAAIAELDSYGVGAGDIKDIQDALLVEIVQLLKQAILAVLPA; Engineered IL-6 binding Y variant)
quantitative.readout: 21000
--
substance: Y02700: IL-6 binding Y variant, Y02415 with I9L, SEQ ID NO:84 (LAEAKEAALAELDSKGVGAGDIKDIQDALLVEIVQLLKQAILAVLPA; Engineered IL-6 binding Y variant)
quantitative.readout: 46000
--
substance: Y02698: IL-6 binding Y variant, Y02444 with K15Y, SEQ ID NO:82 (LAEAKEAAIAELDSYGVGAVEIKQIQEALLVEIVQLLKQAILAVLPA; Engineered IL-6 binding Y variant)
quantitative.readout: 28000

Note: attention shifts to another entry.
Write down the reported ka of Y02697: IL-6 binding Y variant, Y02444 with I9L, SEQ ID NO:81 (LAEAKEAALAELDSKGVGAVEIKQIQEALLVEIVQLLKQAILAVLPA; Engineered IL-6 binding Y variant) , test system: IL-6 (Homo sapiens).
50000
